# measured_on: T1, Human CD228 protein (human, UniProt P08582 20-708, limits assumed)
# T1 construct: Recombinant protein made in CHO cells, purified over a Ni column; The printed entry begins with the leader (MRGPSG...) and ends with ten His; also called hCD228; CD228-His protein
# T1 sequence: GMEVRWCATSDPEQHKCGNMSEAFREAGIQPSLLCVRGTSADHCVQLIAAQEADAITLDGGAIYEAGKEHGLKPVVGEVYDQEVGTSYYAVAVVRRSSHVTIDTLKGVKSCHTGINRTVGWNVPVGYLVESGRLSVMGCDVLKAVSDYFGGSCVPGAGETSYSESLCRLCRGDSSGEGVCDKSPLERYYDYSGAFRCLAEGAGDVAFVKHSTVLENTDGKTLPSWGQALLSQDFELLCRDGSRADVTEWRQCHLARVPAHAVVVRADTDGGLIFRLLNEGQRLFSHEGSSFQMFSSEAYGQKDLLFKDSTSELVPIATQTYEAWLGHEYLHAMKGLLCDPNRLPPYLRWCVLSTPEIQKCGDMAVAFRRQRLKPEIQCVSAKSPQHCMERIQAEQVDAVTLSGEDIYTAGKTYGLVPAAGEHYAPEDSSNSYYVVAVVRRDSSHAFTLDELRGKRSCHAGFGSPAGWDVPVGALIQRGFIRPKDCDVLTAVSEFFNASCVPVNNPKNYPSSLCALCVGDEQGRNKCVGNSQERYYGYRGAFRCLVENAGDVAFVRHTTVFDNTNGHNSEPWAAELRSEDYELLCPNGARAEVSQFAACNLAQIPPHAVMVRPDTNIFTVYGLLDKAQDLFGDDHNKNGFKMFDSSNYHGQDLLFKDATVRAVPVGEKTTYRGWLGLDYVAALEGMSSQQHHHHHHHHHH
# assay_summary: Octet competition on His-chip CD228; competitor: CA185
assay_metric: Octet response value
Number, no unit, nothing else.

Sample records with Octet response value:
binder: reference antibody hL49 (antibody, human IgG1, kappa, V domains shown, also called H149; hL49 analogy) VH: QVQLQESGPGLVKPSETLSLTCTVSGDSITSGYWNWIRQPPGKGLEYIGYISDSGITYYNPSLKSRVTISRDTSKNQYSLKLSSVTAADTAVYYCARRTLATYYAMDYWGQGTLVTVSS VL: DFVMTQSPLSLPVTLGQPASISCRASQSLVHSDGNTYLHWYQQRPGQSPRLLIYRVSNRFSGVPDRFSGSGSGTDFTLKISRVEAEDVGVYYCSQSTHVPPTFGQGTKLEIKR
Octet response value: 0.432
//
binder: CA149 (antibody, human IgG1, kappa, V domains shown, Intact IgG1; also called CA149 antibody) VH: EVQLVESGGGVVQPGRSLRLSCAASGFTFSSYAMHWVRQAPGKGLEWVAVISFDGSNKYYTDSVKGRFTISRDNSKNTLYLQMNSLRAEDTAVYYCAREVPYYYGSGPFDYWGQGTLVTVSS VL: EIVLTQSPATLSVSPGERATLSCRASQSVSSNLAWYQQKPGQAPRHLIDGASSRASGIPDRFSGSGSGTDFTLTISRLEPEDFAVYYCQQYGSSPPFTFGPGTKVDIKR
Octet response value: 0.0102

Here is the next item to consider.
Quick one: Octet response value of CA13 (antibody, human IgG1, kappa, V domains shown, Intact IgG1 from fully human antibody-transgenic mice) VH: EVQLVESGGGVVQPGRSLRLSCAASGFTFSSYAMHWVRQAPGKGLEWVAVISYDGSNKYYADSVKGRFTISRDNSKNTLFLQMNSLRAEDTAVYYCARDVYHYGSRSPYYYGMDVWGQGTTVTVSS VL: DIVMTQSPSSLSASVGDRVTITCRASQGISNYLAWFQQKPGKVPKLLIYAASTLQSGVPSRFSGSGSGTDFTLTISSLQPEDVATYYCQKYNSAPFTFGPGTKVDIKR ?
-0.0061
